assay-name: Cmax in Wistar rat at 15 mg/kg, ip measured upto 24 hrs by HPLC analysis
Type: ADME, organism-based
Design: dose 15 mg/kg, time < 24 hrs, route ip
experimental-context: in vivo
observable: Cmax

{"input-smiles": "CCCCNNC(=O)c1ccc(Br)cc1", "observable": "Cmax", "result": "5.24 µg/mL"}

Moving on to the next compound.
For the compound "CCCNNC(=O)c1cnc(NCc2ccc(OC)cc2)cn1" , give its measured Cmax value.
9.58 µg/mL

###

assay-name: Selectivity ratio of IC50 for cytotoxicity against human HEK293 cells assessed as inhibition of cell growth to IC50 for cytotoxicity against human MCF7 cells assessed as inhibition of cell growth
Type: toxicity, cell-based
experimental-context: HEK293 cells versus MCF7 cells, read-out: Ratio IC50
Please go through the items and note down their selectivity ratio.

{"input-smiles": "CCCNNC(=O)c1cnc(NC(=O)c2ccc3[nH]ccc3c2)cn1", "selectivity ratio": "> 40"}

Would you mind listing selectivity ratio for each of the following compounds?
1. CCCCNNC(=O)c1cnc(NCc2ccc(OC)cc2)cn1
2. CCCCNNC(=O)c1cnc(NC(=O)c2ccc3ncccc3c2)cn1

1. > 40
2. > 40
